The reported numbers originate from patent US4831170A.

system: B16-F10 murine melanoma cells; assay: In vitro cytotoxicity, B16-F10 murine melanoma cells (72 h, crystal violet); type: cell-based
So I've got a bunch of molecules here, and I need their IC 50 (concentration which inhibits cell growth by 50%), B 16 values.
Give bare numbers, in µg/mL.

Please review the entries below; each comes with its answer.
O=[N+]([O-])[O-].O=[N+]([O-])[O-].[Co+2].c1ccc(P(CCP(c2ccccc2)c2ccccc2)c2ccccc2)cc1.c1ccc(P(CCP(c2ccccc2)c2ccccc2)c2ccccc2)cc1 : 413
O=[N+]([O-])[O-].O=[N+]([O-])[O-].[Pd+2].c1ccc(P(CCP(c2ccccc2)c2ccccc2)c2ccccc2)cc1.c1ccc(P(CCP(c2ccccc2)c2ccccc2)c2ccccc2)cc1 : 4.0
C(=CP(c1ccccc1)c1ccccc1)P(c1ccccc1)c1ccccc1.C(=CP(c1ccccc1)c1ccccc1)P(c1ccccc1)c1ccccc1.[Cl-].[Cl-].[Fe+2] : 452
[Br-].[Br][Pd+].c1ccc(P(CCP(c2ccccc2)c2ccccc2)c2ccccc2)cc1.c1ccc(P(CCP(c2ccccc2)c2ccccc2)c2ccccc2)cc1 : 0.7

// next entry
# IC 50 (concentration which inhibits cell growth by 50%), B 16 of O=[N+]([O-])[O-].O=[N+]([O-])[O-].[Ni+2].c1ccc(P(CCP(c2ccccc2)c2ccccc2)c2ccccc2)cc1.c1ccc(P(CCP(c2ccccc2)c2ccccc2)c2ccccc2)cc1 = 4.1

---

test system: B16 Melanoma; experiment: Antitumor activity against B16 Melanoma in BDF1 mice; format: in vivo; details: median survival time vs saline control; ip, daily days 1-9; active if ≥125; figures separated by slashes are from separate experiments
property: B 16 Maximum % T/C (% T/C)
Numbers only, in % T/C.

O=[N+]([O-])[O-].O=[N+]([O-])[O-].[Ni+2].c1ccc(P(CCP(c2ccccc2)c2ccccc2)c2ccccc2)cc1.c1ccc(P(CCP(c2ccccc2)c2ccccc2)c2ccccc2)cc1 : 183
O=[N+]([O-])[O-].O=[N+]([O-])[O-].[Co+2].c1ccc(P(CCP(c2ccccc2)c2ccccc2)c2ccccc2)cc1.c1ccc(P(CCP(c2ccccc2)c2ccccc2)c2ccccc2)cc1 : 171
[O-][Cl+3]([O-])([O-])[O-].[O-][Cl+3]([O-])([O-])[O-].[Pd+2].c1ccc(P(CCP(c2ccccc2)c2ccccc2)c2ccccc2)cc1.c1ccc(P(CCP(c2ccccc2)c2ccccc2)c2ccccc2)cc1 : 204

The reported B16 Melanoma B 16 Maximum % T/C of [O-][Cl+3]([O-])([O-])[O-].[Rh+].c1ccc(P(CCP(c2ccccc2)c2ccccc2)c2ccccc2)cc1.c1ccc(P(CCP(c2ccccc2)c2ccccc2)c2ccccc2)cc1 is 131

---

test system: HCT-116 human colon carcinoma cells; test: In vitro cytotoxicity, HCT-116 human colon carcinoma cells (72 h, crystal violet); format: cell-based; details: HCT-116 cells
So I've got a bunch of compounds here, and I need their IC 50 (concentration which inhibits cell growth by 50%), HCT 116 values.

Please review the entries below; each comes with its answer.
C(=CP(c1ccccc1)c1ccccc1)P(c1ccccc1)c1ccccc1.C(=CP(c1ccccc1)c1ccccc1)P(c1ccccc1)c1ccccc1.[Cl-].[Cl-].[Fe+2] : 383 µg/mL
[Br-].[Br][Pd+].c1ccc(P(CCP(c2ccccc2)c2ccccc2)c2ccccc2)cc1.c1ccc(P(CCP(c2ccccc2)c2ccccc2)c2ccccc2)cc1 : 6.3 µg/mL
O=[N+]([O-])[O-].O=[N+]([O-])[O-].[Ni+2].c1ccc(P(CCP(c2ccccc2)c2ccccc2)c2ccccc2)cc1.c1ccc(P(CCP(c2ccccc2)c2ccccc2)c2ccccc2)cc1 : 1.3 µg/mL
O=[N+]([O-])[O-].O=[N+]([O-])[O-].[Pd+2].c1ccc(P(CCP(c2ccccc2)c2ccccc2)c2ccccc2)cc1.c1ccc(P(CCP(c2ccccc2)c2ccccc2)c2ccccc2)cc1 : 19.6 µg/mL

The reported HCT-116 human colon carcinoma cells IC 50 (concentration which inhibits cell growth by 50%), HCT 116 of O=[N+]([O-])[O-].O=[N+]([O-])[O-].[Co+2].c1ccc(P(CCP(c2ccccc2)c2ccccc2)c2ccccc2)cc1.c1ccc(P(CCP(c2ccccc2)c2ccccc2)c2ccccc2)cc1 is > 500 µg/mL
